conditions: in DMF, 288.15 K
measuredMetric: solubility (mole fraction)
Respond using a number only.

Lookup: Requested field: solubility (mole fraction). Item: `CCCCCCCCCCCC[N+](C)(C)CCOc1ccccc1.[Br-]`
Found: 0.0292

----------
conditions: in DMAc, 283.15 K
measuredMetric: solubility (mole fraction)

Lookup: Requested field: solubility (mole fraction). Item: `CCCCCCCCCCCC[N+](C)(C)CCOc1ccccc1.[Br-]`
Found: 0.0168

----------
conditions: in isobutanol, 298.15 K
measuredMetric: solubility (mole fraction)
Respond using a number only.

Lookup: Requested field: solubility (mole fraction). Item: `CCCCCCCCCCCC[N+](C)(C)CCOc1ccccc1.[Br-]`
Found: 0.145

----------
conditions: in tert-butanol, 318.15 K
measuredMetric: solubility (mole fraction)

Lookup: Requested field: solubility (mole fraction). Item: `CCCCCCCCCCCC[N+](C)(C)CCOc1ccccc1.[Br-]`
Found: 0.241

----------
settings: in ethanol, 318.15 K
measuredMetric: solubility (mole fraction)

Lookup: Requested field: solubility (mole fraction). Item: `CCCCCCCCCCCC[N+](C)(C)CCOc1ccccc1.[Br-]`
Found: 0.251

----------
conditions: in isopropanol, 293.15 K
measuredMetric: solubility (mole fraction)
Respond using a number only.

Lookup: Requested field: solubility (mole fraction). Item: `CCCCCCCCCCCC[N+](C)(C)CCOc1ccccc1.[Br-]`
Found: 0.07

----------
details: in isopropanol, 283.15 K
measuredMetric: solubility (mole fraction)

Lookup: Requested field: solubility (mole fraction). Item: `CCCCCCCCCCCC[N+](C)(C)CCOc1ccccc1.[Br-]`
Found: 0.0234

----------
settings: in n-propanol, 308.15 K
measuredMetric: solubility (mole fraction)
Respond using a number only.

Lookup: Requested field: solubility (mole fraction). Item: `CCCCCCCCCCCC[N+](C)(C)CCOc1ccccc1.[Br-]`
Found: 0.211

----------
conditions: in DMAc, 288.15 K
measuredMetric: solubility (mole fraction)
Respond using a number only.

Lookup: Requested field: solubility (mole fraction). Item: `CCCCCCCCCCCC[N+](C)(C)CCOc1ccccc1.[Br-]`
Found: 0.0216

----------
settings: in n-butanol, 303.15 K
measuredMetric: solubility (mole fraction)

Lookup: Requested field: solubility (mole fraction). Item: `CCCCCCCCCCCC[N+](C)(C)CCOc1ccccc1.[Br-]`
Found: 0.181

----------
conditions: in isobutanol, 293.15 K
measuredMetric: solubility (mole fraction)
Respond using a number only.

Lookup: Requested field: solubility (mole fraction). Item: `CCCCCCCCCCCC[N+](C)(C)CCOc1ccccc1.[Br-]`
Found: 0.118

----------
conditions: in acetonitrile, 298.15 K
measuredMetric: solubility (mole fraction)
Respond using a number only.

Lookup: Requested field: solubility (mole fraction). Item: `CCCCCCCCCCCC[N+](C)(C)CCOc1ccccc1.[Br-]`
Found: 0.00991

----------
details: in DMF, 323.15 K
measuredMetric: solubility (mole fraction)
Respond using a number only.

Lookup: Requested field: solubility (mole fraction). Item: `CCCCCCCCCCCC[N+](C)(C)CCOc1ccccc1.[Br-]`
Found: 0.132

----------
details: in NMP, 293.15 K
measuredMetric: solubility (mole fraction)
Respond using a number only.

Lookup: Requested field: solubility (mole fraction). Item: `CCCCCCCCCCCC[N+](C)(C)CCOc1ccccc1.[Br-]`
Found: 0.042

Values compiled from BigSolDB 2.1.
